Answer each item with its documented growth inhibition.
assay: NCI Yeast Anticancer Drug Screen. Data for the wt2 strain (AID 169);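 note: 0% = growth of vehicle-treated yeast cultures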; conditions: S. cerevisiae wt2 strain growth inhibition; at 1.2 µM; hits give high values
Compounds without any hit were thinned out: in the full panel of roughly 79,000, 15% have a hit.
Express the result in % but write the number alone.

Challenge: Please look at this molecule and report its growth inhibition: Cc1cccc2c(Cl)c3cccc(C)c3nc12
Response given: -4

Challenge: Hello, please tell me recorded growth inhibition for this one: OC(Cc1cccc2ccccc12)CN1CCC(c2ccccc2)CC1 (stereo not given)
Response given: 50

Challenge: Specify reported growth inhibition for the molecule shown: CCN1CCC(O)(c2ccc(Oc3ccc(C)cc3)cc2)C(C(=O)c2ccc(Oc3ccc(C)cc3)cc2)C1 (stereo not given)
Response given: -7

Challenge: // Input: CCCCCCCCCCCCCCCCCCNc1nc(=O)n(C2CC(OP(=O)(O)OCC3OC(n4cc(F)c(=O)[nH]c4=O)CC3O)C(CO)O2)cc1F (stereo not given) . Output its growth inhibition only.
Response given: -38

Challenge: Provide measured growth inhibition value, entry: CC(C)S(=O)(=O)/C=C\S(=O)(=O)C(C)C
Response given: 5

---

Give measured growth inhibition for each item. Keep answers brief.
experiment: NCI Yeast Anticancer Drug Screen. Data for the rad14 strain (AID 159);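 note: 0% = growth of vehicle-treated control cultures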; conditions: S. cerevisiae rad14 strain growth inhibition; at 3.7 µM; hits give high values
This is part of a sample that, as a whole, favours compounds with a hit. Of some 79,000 tested, about 15% had one in any assay.
Your answer is read as %, so omit the unit and give the number.

Challenge: Quote growth inhibition reported for CC(=O)/C=C/c1cccc([N+](=O)[O-])c1 please.
Response given: 0

Challenge: Please indicate growth inhibition recorded for CC1(C2CC2)C(C#N)(C#N)C1(C#N)C#N
Response given: 7

Challenge: Write down growth inhibition measured for item CCC(C)COC(=O)Nc1cccc(Cl)c1 (stereo unspecified)
Response given: 2

Challenge: # return recorded growth inhibition for input CN1CCN(C(=O)c2cccc3cccc(C(=O)O)c23)CC1
Response given: 11

Challenge: State its growth inhibition: Cc1ccc(S(=O)(=O)NC(=O)C2C(=O)CC3(CCCCC3)CC2=O)cc1
Response given: -44

Challenge: Given the molecule CC(=O)O/N=C1C=C/C(=C(/C#N)c2ccccc2)C=C/1C , write its reported growth inhibition.
Response given: 7

---

So I've got a bunch of molecules here, and I need their growth inhibition values.
experiment: NCI Yeast Anticancer Drug Screen. Data for the rad14 strain (AID 159);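 note: 0% = growth of vehicle-treated control cultures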; conditions: S. cerevisiae rad14 strain growth inhibition; at 11.0 µM; hits give high values
This is part of a sample that, as a whole, favours compounds with a hit. Of some 79,000 tested, about 15% had one in any assay.
Enter your answer as a number in %; do not include the unit.

Challenge: Supply reported growth inhibition belonging to this molecule: CSC(=S)N/N=C/c1ccccc1
Response given: 12

Challenge: Tell me measured growth inhibition for COC(=O)C1=C(C(=O)OC)CC(n2nnc(C(=O)OC)c2C(=O)OC)=CC1 please.
Response given: 4

Challenge: Entry Cc1c(C(=O)/C=C/c2ccccc2[N+](=O)[O-])[n+](=O)c2ccccc2n1[O-] needs its growth inhibition filled in; supply it.
Response given: 73

Challenge: Indicate its recorded growth inhibition; the molecule in question is CC(C)OC(=O)NNc1c(Cl)cc(Cl)cc1Cl
Response given: 2

Challenge: Item O=NC1c2cccc3cccc(c23)C1N=O (stereo unspecified) : provide growth inhibition
Response given: 40

Challenge: For the molecule CCCCN(CCC#N)c1ccc(/C=C/c2ccnc3ccccc23)cc1 , give its reported growth inhibition.
Response given: -5

Just for reference, PubChem BioAssay (NCI) is where these values come from.
